# Target Or System: ROCK2 (Homo sapiens (Human), UniProt O75116)
# Sequence (O75116 whole entry, species assumed): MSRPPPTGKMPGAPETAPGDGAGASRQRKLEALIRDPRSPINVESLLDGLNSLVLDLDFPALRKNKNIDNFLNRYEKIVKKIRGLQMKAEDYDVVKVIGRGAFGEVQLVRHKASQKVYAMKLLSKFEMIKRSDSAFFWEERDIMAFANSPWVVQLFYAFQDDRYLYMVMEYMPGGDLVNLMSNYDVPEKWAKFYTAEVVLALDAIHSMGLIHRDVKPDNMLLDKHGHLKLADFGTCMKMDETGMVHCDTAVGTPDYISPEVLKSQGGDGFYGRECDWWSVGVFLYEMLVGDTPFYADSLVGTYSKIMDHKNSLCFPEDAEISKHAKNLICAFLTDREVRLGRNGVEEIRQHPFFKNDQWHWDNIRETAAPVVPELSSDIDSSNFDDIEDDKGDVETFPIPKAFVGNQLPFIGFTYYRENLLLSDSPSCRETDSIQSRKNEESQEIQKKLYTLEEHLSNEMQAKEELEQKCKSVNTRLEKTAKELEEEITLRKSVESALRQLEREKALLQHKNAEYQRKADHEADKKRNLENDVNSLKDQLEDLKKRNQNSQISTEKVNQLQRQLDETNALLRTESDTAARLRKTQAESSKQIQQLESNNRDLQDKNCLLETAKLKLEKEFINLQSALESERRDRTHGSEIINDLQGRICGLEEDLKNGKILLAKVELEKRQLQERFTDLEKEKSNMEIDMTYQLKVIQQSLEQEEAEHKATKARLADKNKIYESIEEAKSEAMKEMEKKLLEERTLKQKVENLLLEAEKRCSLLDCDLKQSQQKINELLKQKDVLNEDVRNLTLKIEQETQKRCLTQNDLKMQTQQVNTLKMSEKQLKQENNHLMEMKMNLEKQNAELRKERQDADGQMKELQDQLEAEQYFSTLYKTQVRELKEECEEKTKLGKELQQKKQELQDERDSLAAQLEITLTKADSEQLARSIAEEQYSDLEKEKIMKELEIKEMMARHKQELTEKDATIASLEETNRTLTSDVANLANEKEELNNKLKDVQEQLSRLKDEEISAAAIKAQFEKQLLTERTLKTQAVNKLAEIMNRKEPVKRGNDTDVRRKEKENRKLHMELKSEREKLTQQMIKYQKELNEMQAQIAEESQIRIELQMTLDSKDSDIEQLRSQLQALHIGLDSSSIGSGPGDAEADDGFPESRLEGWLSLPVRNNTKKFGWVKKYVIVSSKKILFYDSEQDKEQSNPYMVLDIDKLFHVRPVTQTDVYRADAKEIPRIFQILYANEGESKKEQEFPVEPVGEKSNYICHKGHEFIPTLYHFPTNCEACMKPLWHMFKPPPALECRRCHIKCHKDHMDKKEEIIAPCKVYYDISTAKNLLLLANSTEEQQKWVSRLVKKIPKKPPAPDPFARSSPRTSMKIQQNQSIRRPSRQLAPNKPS
# Test Method Notes: ROCK assay (peptide substrate phosphorylation, LABCHIP 3000 Reader)
# Assay type: biochemical
# Recorded Conditions: 5 μM ATP, 1.5 μM peptide substrate
pIC50: −log10 of the molar value.
Label Y when pIC50 is at or above 8; otherwise label N.

{"Molecule": "COc1cc(C(=O)N2CC(O)C[C@@H]2c2cccc(C(=O)N3CC(F)(F)C3)c2)ccc1-c1cn[nH]c1 (some centres unmarked)", "Target Or System": "ROCK2 (Homo sapiens (Human), UniProt O75116)", "Group": "N"}
{"Molecule": "COc1cc(C(=O)N2CCCC2c2cccc(O)c2)ccc1-c1cn[nH]c1 (centres unmarked)", "Target Or System": "ROCK2 (Homo sapiens (Human), UniProt O75116)", "Group": "Y"}
{"Molecule": "COc1cc(C(=O)N2CCCCC2c2ccccc2F)ccc1-c1cn[nH]c1 (centres unmarked)", "Target Or System": "ROCK2 (Homo sapiens (Human), UniProt O75116)", "Group": "N"}
{"Molecule": "COc1cc(C(=O)N2CC(O)C[C@@H]2c2cccc(S(C)(=O)=O)c2)ccc1-c1cn[nH]c1 (some centres unmarked)", "Target Or System": "ROCK2 (Homo sapiens (Human), UniProt O75116)", "Group": "N"}
{"Molecule": "COc1cc(C(=O)N2C[C@H](N)C[C@@H]2c2ccccc2F)ccc1-c1cn[nH]c1", "Target Or System": "ROCK2 (Homo sapiens (Human), UniProt O75116)", "Group": "Y"}
{"Molecule": "COc1cc(C(=O)N2CC(O)C[C@@H]2c2cccc(C(=O)NC3CCC3)c2)ccc1-c1cn[nH]c1 (some centres unmarked)", "Target Or System": "ROCK2 (Homo sapiens (Human), UniProt O75116)", "Group": "Y"}

* * *

# Target Or System: ROCK2 (Homo sapiens (Human), UniProt O75116)
# Test Method Notes: ROCK assay (peptide substrate phosphorylation, LABCHIP 3000 Reader)
# Assay type: biochemical
# Recorded Conditions: 5 μM ATP, 1.5 μM peptide substrate
Listing of recorded IC50 by entry.

{"Molecule": "COc1cc(C(=O)N2CCCC2c2cccc(Br)c2)ccc1-c1cn[nH]c1 (centres unmarked) [Example 15]", "Unit Descriptor": "µM", "IC50": 0.031}
{"Molecule": "COc1cc(C(=O)N2C[C@@H](O)C[C@@H]2c2ccccc2F)ccc1-c1cn[nH]c1 [Example 93]", "Unit Descriptor": "µM", "IC50": 0.00452}
{"Molecule": "COc1cc(C(=O)N2CC(O)C[C@@H]2c2cccc(C(=O)NCc3cc(C)no3)c2)ccc1-c1cn[nH]c1 (some centres unmarked) [Example 58]", "Unit Descriptor": "µM", "IC50": 0.00532}
{"Molecule": "COc1cccc(C2CCCN2C(=O)c2ccc(-c3ccnc(F)c3)c(OC)c2)c1 (centres unmarked) [Example 83]", "Unit Descriptor": "µM", "IC50": 0.153}
{"Molecule": "COc1cc(C(=O)N2CCCC2Cc2ccccc2)ccc1-c1cn[nH]c1 (centres unmarked) [Example 14]", "Unit Descriptor": "µM", "IC50": 0.183}
{"Molecule": "COc1cc(C(=O)N2CC(O)C[C@@H]2c2cccc(C(=O)O)c2)ccc1-c1cn[nH]c1 (some centres unmarked) [Example 44]", "Unit Descriptor": "µM", "IC50": 0.0497}
{"Molecule": "COc1cc(C(=O)N2C[C@](C)(O)C[C@@H]2c2cccc(C(=O)NCC3CC3)c2)ccc1-c1cn[nH]c1 [Example 88]", "Unit Descriptor": "µM", "IC50": 0.0106}
{"Molecule": "COc1cc(C(=O)N2CC(O)C[C@@H]2c2cccc(C(=O)N3CC(F)C3)c2)ccc1-c1cn[nH]c1 (some centres unmarked) [Example 64]", "Unit Descriptor": "µM", "IC50": 0.204}
